Target: Cytochrome P450 2C9 (Homo sapiens) (UniProt P11712)
Sequence (P11712 whole entry, looked up): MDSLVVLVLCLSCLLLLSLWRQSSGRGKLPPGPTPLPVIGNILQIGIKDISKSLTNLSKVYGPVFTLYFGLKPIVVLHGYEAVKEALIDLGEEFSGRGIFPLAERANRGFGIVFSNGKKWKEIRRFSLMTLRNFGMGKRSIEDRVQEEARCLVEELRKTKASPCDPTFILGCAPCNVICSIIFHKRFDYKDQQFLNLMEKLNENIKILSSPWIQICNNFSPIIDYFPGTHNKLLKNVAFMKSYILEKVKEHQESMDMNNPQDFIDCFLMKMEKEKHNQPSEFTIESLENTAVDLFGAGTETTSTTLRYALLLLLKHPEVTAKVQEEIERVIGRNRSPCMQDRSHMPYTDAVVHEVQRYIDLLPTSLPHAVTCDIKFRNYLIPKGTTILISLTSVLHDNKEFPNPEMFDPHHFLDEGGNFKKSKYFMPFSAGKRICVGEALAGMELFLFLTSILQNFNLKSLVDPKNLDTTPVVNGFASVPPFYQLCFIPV
Assay: blockers of cytochrome P450 2C9 activity – biochemical, luminescence, ADME assay, primary screen (AID 777)
Details: CYP2C9 Supersomes, luciferin-H conversion, at 5 µM
Out of some 96,000 compounds screened, about 19,000 (20%) were called active.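 Rule for the calls: active = blocking of liver enzyme CYP2C9 beyond about 50% at 5 µM (limit read from the data); inactive = the rest.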 These entries were drawn from the full list.
# output must be one of yes (1) = active, no (0) = inactive

>>> answer_label("S=c1[nH]nc2c3c4c(sc3ncn12)CCCC4")
"no (0)"
>>> answer_label("COc1cccc(NC(=O)c2ccccc2SC)c1")
"no (0)"
>>> answer_label("COc1ccc(OC(C)C(=O)Nc2cccnc2)cc1 (stereo unspecified)")
"no (0)"
>>> answer_label("COc1cccc(NC(=O)C(C)Oc2ccccc2)c1 (stereo unspecified)")
"yes (1)"
>>> answer_label("CCC1(C)Cc2c(sc3nnn(CC(=O)Nc4ccc(Cl)cc4)c(=O)c23)CO1 (stereo unspecified)")
"no (0)"

Next:
Recorded test call requested for COc1ccc(CC(=O)Nc2nc3n(n2)C(c2ccccc2)CC(=O)N3)cc1OC (stereo unspecified)
no (0)
